Protocol Details: RAM signaling pathway blockade in yeast – S. cerevisiae, Pdr1DBD-CYC8 efflux-inhibited sensitized strain, primary screen (AID 1298);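 further: 0% = DMSO untreated cells without growth and 100% = 10 µM 1-NA-PP1 full growth; higher means more yeast growth rescued from 5-FOA killing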
Recorded Conditions: S. cerevisiae cbk1-as DSE1-URA3 strain, 5-FOA growth OD615, 2 d; at 50 µM; stronger effect = higher value
Task for the reader: assign each of the following compounds its reported RAM network inhibition.
Reply numerically in %, unit not repeated.

Input Cc1cccc(-n2ncc3c(NCCc4ccc(S(N)(=O)=O)cc4)ncnc32)c1 , output reported RAM network inhibition.
4.84

Return RAM network inhibition (reported value) for this compound: Cc1ccc2oc(=O)n(CC(=O)O)c2c1
-1.2

Consider the compound CCc1ccc(C2CC(c3cccc(Cl)c3)n3nc(N)nc3N2)cc1 (stereo unspecified) and give its recorded RAM network inhibition.
9.11

Item COc1ccccc1S(=O)(=O)Cc1ccc(C(=O)NCc2cccnc2)o1 : provide RAM network inhibition
2.56

Give the reported value of RAM network inhibition for this record: COc1ccc(-c2cn3c(C)c(C(=O)N4CCN(c5ccc(F)cc5)CC4)sc3n2)cc1
5.28

Identify measured RAM network inhibition associated with CCOC(=O)c1ccc(NC(=O)CC2SC(=NC)N(C)C2=O)cc1 (stereo unspecified)
2.16

Read the entry Cc1cc(N2CCOCC2)c2c(N)c(Br)cc(C)c2n1 and write its reported RAM network inhibition.
3.17

Assign RAM network inhibition to the following record: CCOC(=O)N1CCN(C(=O)CN(C2CCCCC2)S(=O)(=O)c2ccc(F)cc2)CC1
6.62

Consider the compound CCc1ccccc1S(=O)(=O)Cc1ccc(C(=O)N2CCN(c3ccccn3)CC2)o1 and give its recorded RAM network inhibition.
2.4

Hello, please tell me recorded RAM network inhibition for this one: Cn1cccc1Cc1nnc(SCC(=O)NCc2ccc(F)cc2)n1-c1ccc(F)cc1
6.3

Give recorded RAM network inhibition. CCc1c(C)c2c(C)nn(-c3ccccc3)c2[nH]c1=O
0.31

Give a short answer stating reported RAM network inhibition for O=C(Nc1ccc2c(c1)OCCO2)NC1CCCCC1 .
-0.57

Output RAM network inhibition of CC1(C(=O)NCc2cccnc2)CCC(=O)N1CCc1ccccc1 (stereo unspecified)
2.65

Please give the documented RAM network inhibition of Cc1cc(C)nc(/N=C2\NC(=O)CC(C(=O)O)N2c2ccc(Cl)cc2)n1 (stereo unspecified)
3.63

Provide only the value of recorded RAM network inhibition for CCOC(=O)c1ccc(NC(=O)Cn2cc3c(n2)CCC(C)C3)cc1 (stereo unspecified)
6.92

Supply RAM network inhibition value. Item: Cc1nc2nc[nH]c2cc1Br
-0.41

###

Please go through the items and note down their inhibition.
Protocol Details: RAM pathway blockade in budding yeast – dse1pr::URA3 reporter, 5-FOA selection, pilot screen (AID 869);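 further: 0% = DMSO wells with no growth and 100% = 10 µM 1-NA-PP1 with full growth; RAM network block rescues cells from 5-FOA so hits raise OD615 growth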
Recorded Conditions: S. cerevisiae dse1pr::URA3 5-FOA growth, OD615, 2 d; at 10 µM; stronger effect = higher value; strain carries analog-sensitive mutant Cbk1 kinase
Field format: number, assumed %, no unit text.

Report inhibition, nothing else, for this compound: CC(=O)Nc1ccc(S(=O)(=O)N2CCN(c3cc(C)ccc3C)CC2)cc1
3.58

Tell me measured inhibition for CC(C)=C1SC(N2CCN(Cc3ccccc3)CC2)=NC1=O please.
0.52

Annotate the compound Cc1nnc(N(Cc2ccco2)C(=O)c2cccc(C#N)c2)s1 with its measured inhibition.
1.8

Specify measured inhibition for O=S(=O)(c1ccccc1)N1CCN(S(=O)(=O)c2ccccc2)C1 .
-0.14

Answer with reported inhibition of COc1cccc(C2CC(c3c(Cl)cccc3Cl)n3nc(N)nc3N2)c1 (stereo not given)
-0.3

Please give measured inhibition of the following entry: O=C(CN1CCN(Cc2ccccc2F)C1=O)NCc1cccnc1
0.605

Find the measured inhibition of CCOC(=O)N1CCC(Nc2ccc3nnc(-c4ccccc4)n3n2)CC1 and report it.
-0.975

Given CC1C(=O)CC(c2ccccc2)N(C)C1c1ccccc1 (stereo not given) , respond with its inhibition.
2.57

Provide measured inhibition value, entry: CC(=O)c1c(C)cc(C)c(CSc2nc(C)cc(=O)[nH]2)c1C
0.245

Specify inhibition for O=C(c1cc(C2CC2)on1)N1CCN(C(c2ccccc2)c2ccccc2)CC1 and stop.
0.66

Return inhibition for the following compound: COc1ccc(CN2C(=O)CN=C2Nc2ccc(C)cc2C)cc1
3.82

Identify measured inhibition associated with CCC(C)C(=O)Nc1nc2c(s1)C(=O)CC(C)(C)C2 (stereo not given)
2.1

Specify inhibition for CCN(CC)C1=CC(=O)OC12CCCCC2 and stop.
2.08

Please give measured inhibition of the following entry: COc1cc2c(cc1OC)C(c1ccc(C)o1)CC(=O)N2 (stereo not given)
1.21

Please give measured inhibition of the following entry: O=C(c1ccc(Br)cc1)N1CCN(S(=O)(=O)c2ccccc2)CC1
1.71

Look up and state reported inhibition for COC(=O)c1nc2n(n1)C(c1ccc(OC)c(OC)c1)C(C(=O)OC1CCCCC1)=C(C)N2 (stereo not given)
2.87

Return the recorded inhibition value; entry: COCCn1c(=N)c(C(=O)NCCc2ccccc2)cc2c(=O)n3cccc(C)c3nc21
0.64

Look up and report measured inhibition for this entry: COc1ccc(-c2cnc(SCC(=O)Nc3ccc4c(c3)OCO4)n2Cc2ccco2)cc1
1.66

Return inhibition for the following compound: CC(C)n1c(SCc2ccccc2F)nc2c1c(=O)n(C)c(=O)n2C
1.15

Could you please provide reported inhibition for CC(=O)NC(CCS(C)(=O)=O)C(=O)Nc1cc(C)on1 (stereo not given) ? Thanks!
1.99

Check the records and state inhibition for Cc1nc(=O)c(-c2ccccc2)c(C)n1CC1CCCO1 (stereo not given)
1.38

State its inhibition: O=C(Nc1ccncc1)c1ccccc1F
1.06

Name the recorded inhibition of the compound listed here: Cn1c(C(=O)N2CCN(c3ccc(F)cc3)CC2)cc2c(=O)n(C)c3ccccc3c21
1.64

In one line, give reported inhibition of the entry COc1ccc(CCn2c(-c3ccco3)nc3ccccc3c2=O)cc1OC .
0.935

State its inhibition: CCOC(=O)C1=C(CS(=O)(=O)c2ccc(F)c(C)c2)NC(=O)NC1c1ccc(O)c(O)c1 (stereo not given)
-0.51

Input CCN(CC)C(=O)CCCOc1ccc(Cl)cc1Cl , output reported inhibition.
-0.905

Give inhibition for Cc1cc(OC2CCCCC2)nc(-c2ccccc2O)n1
1.9

Look up and report measured inhibition for this entry: Cc1cc(N2C(=O)C3C4c5ccccc5C(c5ccccc54)C3C2=O)no1 (stereo not given)
0.02

Please supply the value of reported inhibition for the item CN(CCC#N)C(=O)Cn1nc(Cc2ccncc2)c2ccccc2c1=O
0.515

Query inhibition for CCOC(=O)C1C(=O)N(C(=O)c2cncc(Br)c2)CC1c1ccccc1 (stereo not given)
0.985

###

Protocol Details: viability of HCT116 without oncogenic beta-catenin – human colon tumor cells, pilot screen (AID 823);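 further: 0% = wells killed by 20 µM Hyamine and 100% = untreated DMSO cell wells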
Recorded Conditions: HCT116 beta-catenin knockout viability, CellTiter-Glo, 60 h; at 10 µM; stronger effect = lower value
Results filed as inconclusive are left out.
Record form. Attribute: viability. Fill in for each entry.
Only the number, expressed in %, is required.

Read off the recorded viability for CCOc1ccc(S(=O)(=O)n2c(C)nc3ccccc32)cc1
98.2

Using known records, supply viability for Cn1c(C(=O)NCCc2ccsc2)cc2c(=O)n(C)c3ccccc3c21
105

Specify reported viability for the compound shown: Cc1nn(-c2ccccc2)c(Cl)c1C(=O)Nc1c(C)n(C)n(-c2ccccc2)c1=O
102

Identify measured viability associated with c1ccc(Cn2nnc3c(N4CCCCCC4)ncnc32)cc1
40

###

Protocol Details: MRP1 drug-resistance reversers in H69AR cells – cell-based, doxorubicin co-treatment, pilot screen (AID 601)
Recorded Conditions: H69AR cells, CellTiter-Glo, 72 h; compound alone cytotoxicity; at 10 µM
Endpoint Name: viability
A bare number is not enough; add the unit after it.

Find the measured viability of COC(=O)c1ccsc1NC(=O)CN1C(=O)CCC1=O and report it.
91.6%

Please give the documented viability of CCCn1cc(SCC(N)=O)c2ccccc21
91.2%

Please look at this compound and report its viability: Cc1ccc(S(=O)(=O)N2CCOCC2)cc1C(=O)Nc1nc(-c2cccnc2)cs1
103%

Please report the measured viability for O=C(NCc1cccs1)C(Cc1ccccc1)n1cccc1 (stereo not given)
94.6%

Look up and report measured viability for this entry: O=C(CSc1nnc(Cn2c(=O)sc3ccccc32)n1-c1ccccc1)Nc1nccs1
84.2%

Respond only with viability recorded for CC(=O)Nc1cccc(NC(=O)CSc2nn3c(=O)c(C)nnc3s2)c1
90.8%

For CCCOC(=O)c1[nH]c2c(c1C)C(=O)CC(c1cc(OC)c(OC)c(OC)c1)C2 (stereo not given) , write its viability.
74.2%

Hello, please tell me recorded viability for this one: CCOC(=O)N1CCC(Nc2ncnc3c2cnn3-c2ccc(C)cc2C)CC1
72.7%

Write down viability measured for item O=C(CCN1C(=O)c2ccccc2C1=O)NCCN1CCOCC1
95.3%

Determine its reported viability: CCN(CC)c1ccc(NC(=O)CN2C(=O)CC(C)(C)S(=O)(=O)c3ccccc32)c(C)c1
84.8%

Please indicate viability recorded for COc1ccccc1S(=O)(=O)Cc1ccc(C(=O)N2CCN(c3ccccn3)CC2)o1
88.9%

Please give the documented viability of COc1ccc(-c2nc3c(c(SCC(=O)N4CCOCC4)n2)COC(C)(C)C3)cc1
89.2%

Give a short answer stating reported viability for O=C(c1ccco1)N1CCN(C(=O)C2CC(c3ccc(F)cc3)=NO2)CC1 (stereo not given) .
88.5%

Specify viability for Cc1cc(C)nc(SCc2csc(N)n2)n1 and stop.
90.1%

Let me know recorded viability for CCOC(=O)c1cc2c(=O)n3ccccc3nc2n(Cc2ccccc2)c1=N , thanks.
83.8%

Supply recorded viability for CCN(CCNC(=O)C1CCN(S(=O)(=O)c2cccc3cccnc23)CC1)c1ccccc1 here.
98.3%

// Input: COc1cc(C2NC(=O)NC(C)=C2C(=O)OCC2CCCO2)ccc1O (stereo not given) . Output its viability only.
103%

For the compound COCc1cc(C)nc(Nc2ccc(C)cc2C)c1C#N , give its measured viability value.
104%

Return the recorded viability value; entry: CCn1c(SCC(=O)Nc2cccc(C)c2)nc2c(c1=O)SC(C)C2 (stereo not given)
76.7%

In one line, give reported viability of the entry CC(C)(C)NC(=O)CC(CC(=O)O)c1ccccc1 (stereo not given) .
88.5%

Fill in viability for record CC(C)(C)SCCNC(=O)CSc1ccccc1
101%

Let me know recorded viability for CCOC(=O)c1sc2nc(NC(=O)C3CCCCC3)sc2c1C , thanks.
76.9%

# return recorded viability for entry COc1ccc(C2CC(c3ccc(Cl)cc3Cl)n3nc(N)nc3N2)cc1 (stereo not given)
90.4%

Check the records and state viability for COc1ccc(CC(=O)NCc2nnc(SCC(=O)Nc3nccs3)n2-c2ccccc2)cc1
96.6%

For the compound CCn1cc(C(=O)NCCC2=CCCCC2)c(=O)c2cc(S(=O)(=O)N(C)C)ccc21 , report viability.
71.7%

Could you please provide reported viability for O=C(NCCN1C(=O)C2C3C=CC(C3)C2C1=O)N1CCOCC1 (stereo not given) ? Thanks!
93.7%

// Input: CC(=O)c1cccc(NC(=O)CCNS(=O)(=O)c2cccc3nsnc23)c1 . Output its viability only.
106%

Give recorded viability. CCn1cc(C(=O)NCC2CCCO2)c(=O)c2cc(S(=O)(=O)N(C)C3CCCCC3)ccc21 (stereo not given)
68.5%

Tell me viability reported for CN(CCCNC(=O)c1cn(C)c2ccc(S(=O)(=O)N(C)C)cc2c1=O)c1ccccc1
87.7%

Output viability of CN(C)CCCN1C(=O)c2oc3ccc(Cl)cc3c(=O)c2C1c1cccnc1 (stereo not given)
83%

Give the value of viability reported for the following: CCOC(=O)N1CCC(NC(=O)Cn2c3c(c(-c4ccccc4Cl)cc2=O)CCC3)CC1
89.7%

Provide measured viability value, entry: CC1=C(C(N)=O)C(c2ccccn2)n2nc(SCc3ccccc3)nc2N1 (stereo not given)
93.8%

Provide measured viability value, entry: CS(=O)(=O)NCCSCc1c(F)cccc1Cl
102%

Consider the compound Cn1c(SCC(=O)c2cc3ccccc3o2)nnc1-c1ccccc1 and give its recorded viability.
84.3%

Supply reported viability belonging to this compound: CCCc1cc(=O)oc2c(C)c3occ(C)c3cc12
98.2%

The reported measurements were obtained from PubChem BioAssay.
